FYI, the data here is from ChEMBL document CHEMBL3885861.

Organism: Rattus norvegicus
protocol.summary: Open TG-GATES - Regimen: Daily Repeat
Type: toxicity, organism-based, Sprague-Dawley
Design: regimen Daily Repeat, gender Male, age 6 weeks
run.conditions: in vivo, po, 300 mg/kg, […], tissue Blood, route gavage, dose level Middle, time 7 day
reported.property: MCH (pg)
Give the value, in units of pg, as a plain number.

Endpoint output: MCH of Cc1nnc2n1-c1ccc(Cl)cc1C(c1ccccc1Cl)=NC2 . Value?
21.4

Endpoint output: MCH of CN/C(=N/CCSCc1nc[nH]c1C)NC#N . Value?
21

Endpoint output: MCH of O=C(OC[C@H]1O[C@@H](OC(=O)c2cc(O)c(O)c(OC(=O)c3cc(O)c(O)c(O)c3)c2)[C@H](OC(=O)c2cc(O)c(O)c(OC(=O)c3cc(O)c(O)c(O)c3)c2)[C@@H](OC(=O)c2cc(O)c(O)c(OC(=O)c3cc(O)c(O)c(O)c3)c2)[C@@H]1OC(=O)c1cc(O)c(O)c(OC(=O)c2cc(O)c(O)c(O)c2)c1)c1cc(O)c(O)c(OC(=O)c2cc(O)c(O)c(O)c2)c1 . Value?
21.3

Endpoint output: MCH of COC(=O)C1=C(C)NC(C)=C(C(=O)OC)C1c1ccccc1[N+](=O)[O-] . Value?
20.7

Endpoint output: MCH of CNC(=C[N+](=O)[O-])NCCSCc1ccc(CN(C)C)o1 . Value?
22

Endpoint output: MCH of CCOc1ccc(NC(C)=O)cc1 . Value?
20

* * *

Organism: Rattus norvegicus
protocol.summary: Open TG-GATES - Regimen: Single
Type: toxicity, organism-based, Sprague-Dawley
Parameters: regimen Single, gender Male, age 6 weeks
run.conditions: in vivo, po, 0 mg/kg, 3 h, tissue Blood, route gavage, dose level Control
reported.property: MCHC (%)
Give the value, in units of %, as a plain number.

Endpoint output: MCHC of CS(=O)(=O)O.Cc1ccc(NC(=O)c2ccc(CN3CCN(C)CC3)cc2)cc1Nc1nccc(-c2cccnc2)n1 [IMATINIB MESYLATE] . Value?
32.7

Endpoint output: MCHC of CCOc1ccc(NC(C)=O)cc1 . Value?
33

Endpoint output: MCHC of CN(C)CCC(c1ccc(Cl)cc1)c1ccccn1 (configuration not stated) . Value?
32.1

Endpoint output: MCHC of NC1=NC(=O)C(c2ccccc2)O1 (configuration not stated) . Value?
34.3

Endpoint output: MCHC of CC(C)NNC(=O)c1ccncc1 . Value?
34.3

Endpoint output: MCHC of Cc1nnc2n1-c1ccc(Cl)cc1C(c1ccccc1Cl)=NC2 . Value?
32.8

Endpoint output: MCHC of CNC(=C[N+](=O)[O-])NCCSCc1ccc(CN(C)C)o1 . Value?
34.7

Endpoint output: MCHC of Brc1ccccc1 . Value?
33.2

Endpoint output: MCHC of CCCc1cc(=O)[nH]c(=S)[nH]1 . Value?
33.3

Endpoint output: MCHC of CN1C(=O)CCS(=O)(=O)C1c1ccc(Cl)cc1 (configuration not stated) . Value?
33.9

Endpoint output: MCHC of CN/C(=N/CCSCc1nc[nH]c1C)NC#N . Value?
34

Endpoint output: MCHC of COC(=O)C1=C(C)NC(C)=C(C(=O)OC)C1c1ccccc1[N+](=O)[O-] . Value?
32.1
